# STUDY_SYSTEM: Human HER3, endogenous, on human cancer cell lines (SK-Br-3, MCF7, BT-474) (human, UniProt P21860 20-1342)
# Sequence (P21860 20-1342): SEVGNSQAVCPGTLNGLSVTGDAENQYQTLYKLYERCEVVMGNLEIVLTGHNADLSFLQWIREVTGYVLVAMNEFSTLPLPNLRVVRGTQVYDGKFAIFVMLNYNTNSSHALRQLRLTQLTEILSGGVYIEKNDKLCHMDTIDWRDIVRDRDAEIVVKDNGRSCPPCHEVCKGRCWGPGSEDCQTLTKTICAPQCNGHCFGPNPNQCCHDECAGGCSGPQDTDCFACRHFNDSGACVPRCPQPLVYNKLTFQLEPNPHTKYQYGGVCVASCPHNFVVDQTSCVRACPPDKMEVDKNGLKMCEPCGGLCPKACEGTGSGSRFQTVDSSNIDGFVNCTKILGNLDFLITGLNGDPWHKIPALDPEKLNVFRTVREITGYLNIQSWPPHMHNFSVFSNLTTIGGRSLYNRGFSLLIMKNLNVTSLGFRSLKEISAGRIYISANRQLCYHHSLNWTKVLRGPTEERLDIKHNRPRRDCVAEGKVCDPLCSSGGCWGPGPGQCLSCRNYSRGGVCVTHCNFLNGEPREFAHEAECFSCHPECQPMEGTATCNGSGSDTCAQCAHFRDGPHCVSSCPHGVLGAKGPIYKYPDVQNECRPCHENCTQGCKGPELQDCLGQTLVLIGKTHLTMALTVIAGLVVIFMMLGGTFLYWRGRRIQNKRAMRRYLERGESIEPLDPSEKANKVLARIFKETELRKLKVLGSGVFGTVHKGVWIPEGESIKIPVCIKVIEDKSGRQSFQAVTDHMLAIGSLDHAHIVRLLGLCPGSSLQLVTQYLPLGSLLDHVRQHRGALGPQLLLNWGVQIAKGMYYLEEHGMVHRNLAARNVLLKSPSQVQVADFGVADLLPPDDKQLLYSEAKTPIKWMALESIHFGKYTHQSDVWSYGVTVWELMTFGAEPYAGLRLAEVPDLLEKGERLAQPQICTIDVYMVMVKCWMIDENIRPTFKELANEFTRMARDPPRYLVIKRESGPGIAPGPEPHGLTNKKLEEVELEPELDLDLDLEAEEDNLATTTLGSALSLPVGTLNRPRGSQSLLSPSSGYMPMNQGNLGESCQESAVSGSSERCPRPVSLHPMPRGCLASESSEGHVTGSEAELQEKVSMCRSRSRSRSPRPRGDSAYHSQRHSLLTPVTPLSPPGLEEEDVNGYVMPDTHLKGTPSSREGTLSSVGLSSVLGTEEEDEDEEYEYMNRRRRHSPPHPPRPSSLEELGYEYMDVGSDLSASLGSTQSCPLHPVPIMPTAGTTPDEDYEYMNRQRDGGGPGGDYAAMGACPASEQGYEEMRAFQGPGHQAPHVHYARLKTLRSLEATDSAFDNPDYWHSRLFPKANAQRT
# ASSAY_INFO: cell-based or functional assay
For each entry below, report its SK-Br-3 pAkt (S473) % inhibition value.
Numbers only, in %.

| BINDER | SK-Br-3 pAkt (S473) % inhibition / % |
| --- | --- |
| MOR13765 (antibody, human IgG1, kappa, V domains shown, tested as IgG) VH: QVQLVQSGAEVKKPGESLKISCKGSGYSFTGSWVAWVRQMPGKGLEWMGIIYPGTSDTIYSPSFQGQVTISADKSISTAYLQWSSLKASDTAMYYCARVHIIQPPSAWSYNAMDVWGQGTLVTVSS VL: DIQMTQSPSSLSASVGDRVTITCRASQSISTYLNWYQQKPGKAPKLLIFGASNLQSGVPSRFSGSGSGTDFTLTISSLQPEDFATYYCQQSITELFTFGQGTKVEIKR | 90 |
| MOR13750 (antibody, human IgG1, kappa, V domains shown, tested as IgG) VH: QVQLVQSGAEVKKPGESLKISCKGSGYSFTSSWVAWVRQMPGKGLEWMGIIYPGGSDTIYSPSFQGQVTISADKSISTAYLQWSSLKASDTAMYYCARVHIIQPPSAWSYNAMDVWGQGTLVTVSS VL: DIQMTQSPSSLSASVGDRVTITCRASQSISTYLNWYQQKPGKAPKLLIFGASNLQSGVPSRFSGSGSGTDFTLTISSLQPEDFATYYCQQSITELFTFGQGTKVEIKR | 83 |
| MOR12616 (antibody, human IgG1, kappa, V domains shown, tested as IgG) VH: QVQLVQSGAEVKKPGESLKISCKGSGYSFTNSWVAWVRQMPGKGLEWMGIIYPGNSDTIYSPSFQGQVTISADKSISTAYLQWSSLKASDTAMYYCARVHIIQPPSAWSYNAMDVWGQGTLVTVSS VL: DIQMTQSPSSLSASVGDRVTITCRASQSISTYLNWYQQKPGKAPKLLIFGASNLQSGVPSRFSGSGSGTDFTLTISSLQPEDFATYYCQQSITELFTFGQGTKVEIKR | 89 |
| MOR13756 (antibody, human IgG1, kappa, V domains shown, tested as IgG) VH: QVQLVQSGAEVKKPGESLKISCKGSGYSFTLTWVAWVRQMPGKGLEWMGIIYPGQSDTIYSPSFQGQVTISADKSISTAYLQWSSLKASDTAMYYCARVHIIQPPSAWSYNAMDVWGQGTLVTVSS VL: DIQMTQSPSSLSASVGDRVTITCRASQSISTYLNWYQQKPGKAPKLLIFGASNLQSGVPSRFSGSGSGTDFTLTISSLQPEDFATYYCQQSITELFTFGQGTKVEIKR | 90 |

Note: attention shifts to another entry.
**Query** Any idea what its SK-Br-3 pAkt (S473) % inhibition is? The binder is MOR13768 (antibody, human IgG1, kappa, V domains shown, tested as IgG) VH: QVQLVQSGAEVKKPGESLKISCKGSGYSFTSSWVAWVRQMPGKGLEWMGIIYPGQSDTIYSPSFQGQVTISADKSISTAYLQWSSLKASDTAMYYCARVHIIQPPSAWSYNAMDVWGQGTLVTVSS VL: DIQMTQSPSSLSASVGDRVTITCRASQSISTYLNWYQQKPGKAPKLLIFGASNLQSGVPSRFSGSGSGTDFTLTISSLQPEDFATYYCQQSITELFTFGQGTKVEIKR
**Result** 94
